target-of-assay: Induced myeloid leukemia cell differentiation protein Mcl-1/Bcl-2-like protein 11 (Homo sapiens) (UniProt Q07820+O43521)
Sequence (O43521 whole entry, looked up, the tested form may be a part): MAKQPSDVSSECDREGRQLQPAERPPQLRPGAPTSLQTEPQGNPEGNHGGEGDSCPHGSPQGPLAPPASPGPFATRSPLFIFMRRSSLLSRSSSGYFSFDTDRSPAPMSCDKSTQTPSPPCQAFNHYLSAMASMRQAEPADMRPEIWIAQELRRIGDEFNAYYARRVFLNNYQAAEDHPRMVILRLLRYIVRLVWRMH
Sequence (Q07820 whole entry, looked up, the tested form may be a part): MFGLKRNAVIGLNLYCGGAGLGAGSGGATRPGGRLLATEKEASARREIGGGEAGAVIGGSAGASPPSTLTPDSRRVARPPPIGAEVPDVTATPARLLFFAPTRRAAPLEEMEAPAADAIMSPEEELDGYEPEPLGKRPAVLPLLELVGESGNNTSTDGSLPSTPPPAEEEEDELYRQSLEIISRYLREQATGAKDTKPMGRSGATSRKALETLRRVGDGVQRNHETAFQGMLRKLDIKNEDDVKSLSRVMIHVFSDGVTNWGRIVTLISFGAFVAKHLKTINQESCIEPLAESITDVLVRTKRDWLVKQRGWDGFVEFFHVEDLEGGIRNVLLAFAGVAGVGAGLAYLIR
assay-text: Inhibition of GST-Mcl-1/BH3 domain of Bim interaction at 25 uM after 1 hr by ELISA
Format: protein assay
Each entry gets NO if its inhibition stays under 60%, and YES if its inhibition is 60% or above.

[
  {
    "molecule": "COCOC[C@@]12C=C[C@@H](C(C)(C)C(=O)NCc3ccc(Br)cc3)C[C@@H]1C=C(C)C[C@@H]2OC(=O)NC1CCCCC1 (relative stereo)",
    "group": "YES"
  },
  {
    "molecule": "C=C(C)COC(=O)C(C)(C)[C@@H]1C=C[C@@]2(COCOC)[C@@H](OCC(=C)C)CC(C)=C[C@H]2C1",
    "group": "NO"
  },
  {
    "molecule": "C=C(C)CNC(=O)C(C)(C)[C@@H]1C=C[C@@]2(COCOC)[C@@H](OC(=O)NC3CCCCC3)CC(C)=C[C@H]2C1 (relative stereo)",
    "group": "NO"
  },
  {
    "molecule": "C=C(C)CNC(=O)C(C)(C)[C@@H]1C=C[C@@]2(COCOC)[C@@H](OC(=O)NC(C)C)CC(C)=C[C@H]2C1 (relative stereo)",
    "group": "NO"
  },
  {
    "molecule": "COCOC[C@@]12C=C[C@@H](C(C)(C)C(=O)O)C[C@@H]1C=C(C)C[C@@H]2O",
    "group": "NO"
  }
]

Request: Decide: is the reported value of inhibition for C=C(C)CNC(=O)C(C)(C)C1C=CC2(COCOC)C(C=C(C)CC2OC(=O)Nc2cccc(Cl)c2)C1 (racemic) equal to or greater than 60%?
Result: YES
